protocol-notes: NCI Yeast Anticancer Drug Screen. Data for the rad50 strain (AID 155);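 further: 0% = growth of vehicle-only cultures of the same strain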
particulars: S. cerevisiae rad50 strain growth inhibition; at 50.0 µM; active compounds read high
This is part of a sample that, as a whole, favours compounds with a hit. Of some 79,000 tested, about 15% had one in any assay. Activity calls are given as the source filed them. No stated cut-off is given here; in the data, active means growth inhibition above about 70%; inactive means the rest.
Assignment: determine reported growth inhibition for the given molecules.

Lab note: `CCOC(=O)NN(C(=O)OCC)C(C(=O)C1=CCCCC1)N(NC(=O)OCC)C(=O)OCC` gave growth inhibition of -9.95% (inactive)

Lab note: `Cc1ccc(S(=O)(=O)N(N)CCC#N)cc1` gave growth inhibition of 7.3% (inactive)

Lab note: `NCc1ccccc1[N+](=O)[O-]` gave growth inhibition of 11.4% (inactive)

Lab note: `CCOC(=O)c1cnc(SC)nc1Nc1cccc(Cl)c1Cl` gave growth inhibition of 1.15% (inactive)

Lab note: `O=C1C(=O)N(C2CCCCC2)C(=S)N1C1CCCCC1` gave growth inhibition of -31.9% (inactive)

Lab note: CC(C)(Cl)C1CCC(CC(Cl)(Cl)Cl)CC1 (centres undefined) gave growth inhibition of 5.3% (inactive)

Lab note: `NC(N)=NS(=O)(=O)c1ccc(Nc2c3ccccc3nc3c(C(=O)Nc4ccc(S(N)(=O)=O)cc4)ccc(Cl)c23)cc1` gave growth inhibition of -8.55% (inactive)

Lab note: `Cc1ccc(N=C2c3cc([N+](=O)[O-])ccc3-c3ccc([N+](=O)[O-])cc32)cc1` gave growth inhibition of 15.1% (inactive)

Lab note: CCC1C(=O)OCc2c1cc1n(c2=O)C(CC)c2c-1nc1ccccc1c2Cl (centres undefined) gave growth inhibition of 57.4% (inactive)

Lab note: COc1cc2c(cc1OC)C(=O)C(C1=C(SC(=N)N)C(=O)c3cc(OC)c(OC)cc31)C2 (centres undefined) gave growth inhibition of -7.4% (inactive)

Lab note: `Nc1cccc(OCc2nc(N)nc(N)c2-c2ccc(Cl)cc2)c1` gave growth inhibition of -14% (inactive)

Lab note: `CCCC/C(C)=N/NC(N)=S` gave growth inhibition of 2.3% (inactive)

Lab note: `c1ccc(NCNC2Nc3ccccc3N2)cc1` gave growth inhibition of -25.9% (inactive)

Lab note: `Nc1nnc2nc(C(C(=O)c3cccc(O)c3)c3nc4nnc(N)n4[nH]c3=O)c(=O)[nH]n12` gave growth inhibition of 8.65% (inactive)

Lab note: CCC(C)[N+](=O)[O-] (centres undefined) gave growth inhibition of 3.6% (inactive)

Lab note: `CCN(CC)c1ccc(-c2ccccc2)cc1` gave growth inhibition of 28.1% (inactive)

Lab note: O=C1CC2(CCc3ccccc32)C(=O)N1CN1CCN(c2ccccn2)CC1 (centres undefined) gave growth inhibition of 0.55% (inactive)

Lab note: `C/C(=C1/N=C(c2ccccc2)OC1=O)c1ccccc1` gave growth inhibition of 39.5% (inactive)

Lab note: Fc1cccc(C2SCc3nc4cc5ccccc5cc4n32)c1 (centres undefined) gave growth inhibition of -21.8% (inactive)

Lab note: CC(c1ccccc1)C1CC(=O)N(C)C1=O (centres undefined) gave growth inhibition of 7.85% (inactive)

Lab note: `COc1ccc(-c2cc(O)cc(C)c2N)c(OC)c1OC` gave growth inhibition of 17.1% (inactive)

Lab note: CCOP(=O)(OCC)C1OCC(O)C(C2OC(P(=O)(OCC)OCC)OCC2O)O1 (centres undefined) gave growth inhibition of 7.95% (inactive)

Lab note: `O=C(CCl)OCc1ccc(Cl)cc1` gave growth inhibition of 4.5% (inactive)

Lab note: O=C(NC(c1ccccc1)C(O)C(=O)OCc1ccc2c(c1)C(=O)c1ccccc1C2=O)c1ccccc1 (centres undefined) gave growth inhibition of 10.9% (inactive)

Lab note: `COC(=O)NC1=Nc2ccc(Cl)cc2NS1` gave growth inhibition of 2.4% (inactive)

Lab note: `NC(=O)Nc1ccc(Cl)cc1[N+](=O)[O-]` gave growth inhibition of -4.35% (inactive)

Lab note: CC(=O)N(CN1C(=O)CCC1C(=O)O)c1ccccc1Cl (centres undefined) gave growth inhibition of 10.3% (inactive)

Lab note: Cc1ccc2c(c1)C1(OC(=O)c3ccccc31)c1ccc(F)cc1O2 (centres undefined) gave growth inhibition of 55% (inactive)

Lab note: `O=C(OCCOc1ccc(Cl)cc1Cl)c1ccccc1O` gave growth inhibition of -2.4% (inactive)

Lab note: Cc1cc2ccccc2c[n+]1C1CCc2ccccc2C1=O (centres undefined) gave growth inhibition of 7.1% (inactive)

Lab note: CN(C)CC1OCCc2ccccc21 (centres undefined) gave growth inhibition of 10.1% (inactive)

Lab note: `Cc1ccccc1CCCC(C(=O)O)C(=O)O` gave growth inhibition of -18.8% (inactive)

Lab note: `CCOC(=O)c1cc2nc(NC(=O)c3ccccc3)sc2n1C` gave growth inhibition of 4.85% (inactive)

Lab note: `Cc1cc2c(=O)cc(-c3ccc(C(=O)O)cc3)oc2c(C(N)=O)c1C` gave growth inhibition of 4.15% (inactive)

Lab note: CC(C)C1NC(=O)NC1=O (centres undefined) gave growth inhibition of -4% (inactive)

Lab note: `COc1ccc(-c2cc(-c3ccc(Cl)cc3)on2)cc1` gave growth inhibition of -15.1% (inactive)

Lab note: `O=C(Nc1ccccc1)SC1CCCCC1` gave growth inhibition of -4.6% (inactive)

Lab note: `CN(/N=C(\C(=O)O)c1ccccc1)C1=NCCN1` gave growth inhibition of -12% (inactive)

Lab note: `O=C(O)c1ccc(C(=O)c2ccc(C(=O)c3ccc(C(=O)O)cc3)cc2)cc1` gave growth inhibition of -9.1% (inactive)

Lab note: `OC(c1ccccc1)(c1ccccc1)C1CC1` gave growth inhibition of 6.2% (inactive)

Lab note: N#Cc1cccc(C2SCc3nc4ccccc4n32)c1 (centres undefined) gave growth inhibition of -1.1% (inactive)

Lab note: `O=C1Nc2ccccc2/C1=N\[O-].O=C1Nc2ccccc2/C1=N\[O-].[Cu+2]` gave growth inhibition of -10.2% (inactive)

Lab note: `NC(=O)O/N=C/c1ccc(Cl)cc1` gave growth inhibition of 2.8% (inactive)

Lab note: O=C(O)CC1CC(=O)c2cccn21 (centres undefined) gave growth inhibition of -4.35% (inactive)
